test system: 128128-338-R-J1-PDC spheroids, viability % test/control; assay: Anticancer human tumor 128128-338-R-J1-PDC patient-derived melanoma cell line growth inhibition [TAK]; conditions: second compound 30 µM; first compound 0.00316 µM; stronger effect = lower value; spheroids with HUVEC and MSC
Below, each entry is listed with its recorded viability, T/C.
Write down the numeric answer in % and omit the unit.

Past entries and their recorded results:
compound	quantity.measured	measurement
COC1CC2CCC(C)C(O)(O2)C(=O)C(=O)N2CCCCC2C(=O)OC(C(C)CC2CCC(OCCO)C(OC)C2)CC(=O)C(C)C=C(C)C(O)C(OC)C(=O)C(C)CC(C)C=CC=CC=C1C (stereo not given) + CC(C)NCC(C(=O)N1CCN(c2ncnc3c2C(C)CC3O)CC1)c1ccc(Cl)cc1	viability, T/C	3.65
CC(C)CC(NC(=O)C(Cc1ccccc1)NC(=O)c1cnccn1)B(O)O (stereo not given) + CC(C)NCC(C(=O)N1CCN(c2ncnc3c2C(C)CC3O)CC1)c1ccc(Cl)cc1	viability, T/C	0.38
CC(C)n1nc(-c2ccc3oc(N)nc3c2)c2c(N)ncnc21 + CC(C)NCC(C(=O)N1CCN(c2ncnc3c2C(C)CC3O)CC1)c1ccc(Cl)cc1	viability, T/C	11.7
COc1c(OCCCN2CCOCC2)ccc2c3n(c(=NC(=O)c4cnc(N)nc4)nc12)CCN3 + CC(C)NCC(C(=O)N1CCN(c2ncnc3c2C(C)CC3O)CC1)c1ccc(Cl)cc1	viability, T/C	19.5

Measured viability, T/C of CC(C)CC(NC(=O)CNC(=O)c1cc(Cl)ccc1Cl)B1OC(=O)CC(CC(=O)O)(C(=O)O)O1 (stereo not given) + CC(C)NCC(C(=O)N1CCN(c2ncnc3c2C(C)CC3O)CC1)c1ccc(Cl)cc1 : 23.8

====

Tested on: 128128-338-R-J1-PDC spheroids, viability % test/control
Experiment: Anticancer human tumor 128128-338-R-J1-PDC cell line growth inhibition [TAK];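 also: spheroids exposed to compounds for 7 days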;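 as to viability, T/C: 100% = DMSO vehicle wells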
Conditions: second compound 0.3 µM; first compound 0.001 µM; stronger effect = lower value; spheroids with HUVEC and MSC
Description: Combinatorial screen of targeted agents with TAK-243 and ipatasertib in multi-cell type tumor spheroids […] Compounds. […] If the clinical Cmax for an agent had not been determined, the highest concentration tested was 10 microM. NCI60 Cell Culture. […] The optimal seeding densities for each of the cell lines at each time point assessed were determined prior to performing the concentration response studies. […]
Below, each entry is listed with its recorded viability, T/C.

Past entries and their recorded results:
compound	viability, T/C
CC(C)CC(NC(=O)CNC(=O)c1cc(Cl)ccc1Cl)B1OC(=O)CC(CC(=O)O)(C(=O)O)O1 (centres undefined) + CC(C)NCC(C(=O)N1CCN(c2ncnc3c2C(C)CC3O)CC1)c1ccc(Cl)cc1	100%
CC(C)n1nc(-c2ccc3oc(N)nc3c2)c2c(N)ncnc21 + CC(C)NCC(C(=O)N1CCN(c2ncnc3c2C(C)CC3O)CC1)c1ccc(Cl)cc1	96.5%
COC1CC2CCC(C)C(O)(O2)C(=O)C(=O)N2CCCCC2C(=O)OC(C(C)CC2CCC(OCCO)C(OC)C2)CC(=O)C(C)C=C(C)C(O)C(OC)C(=O)C(C)CC(C)C=CC=CC=C1C (centres undefined) + CC(C)NCC(C(=O)N1CCN(c2ncnc3c2C(C)CC3O)CC1)c1ccc(Cl)cc1	99.9%

Attention now shifts to the item below.
Measured viability, T/C of CC(C)CC(NC(=O)C(Cc1ccccc1)NC(=O)c1cnccn1)B(O)O (centres undefined) + CC(C)NCC(C(=O)N1CCN(c2ncnc3c2C(C)CC3O)CC1)c1ccc(Cl)cc1 : 97.3%

====

Tested on: 128128-338-R-J1-PDC spheroids, viability % test/control
Assay: Anticancer human tumor 128128-338-R-J1-PDC cell line growth inhibition [TAK];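 also: spheroids exposed to compounds for 7 days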
Conditions: curve of compound; spheroids with HUVEC and MSC
Procedure: Combinatorial screen of targeted agents with TAK-243 and ipatasertib in multi-cell type tumor spheroids […] Compounds. […] If the clinical Cmax for an agent had not been determined, the highest concentration tested was 10 microM. NCI60 Cell Culture. […] The optimal seeding densities for each of the cell lines at each time point assessed were determined prior to performing the concentration response studies. […]
Below, each entry is listed with its recorded IC50.

compound	IC50
COC1CC2CCC(C)C(O)(O2)C(=O)C(=O)N2CCCCC2C(=O)OC(C(C)CC2CCC(OCCO)C(OC)C2)CC(=O)C(C)C=C(C)C(O)C(OC)C(=O)C(C)CC(C)C=CC=CC=C1C (configuration not stated)	> 0.1 µM

Attention now shifts to the item below.
Measured IC50 of Cc1nc(NC(=O)N2CCCC2C(N)=O)sc1-c1ccnc(C(C)(C)C(F)(F)F)c1 (configuration not stated) : > 10 µM

====

tested on: 128128-338-R-J1-PDC spheroids, viability % test/control; test: Anticancer human tumor 128128-338-R-J1-PDC cell line growth inhibition [TAK]; conditions: second compound 30 µM; first compound 1 µM; stronger effect = lower value; spheroids with HUVEC and MSC;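 also: spheroids exposed to compounds for 7 days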;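 as to viability, T/C: 100% = DMSO vehicle wells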
quantity.measured: viability, T/C

Past entries and their recorded results:
molecule	measurement
CC(C)(C)c1nc(-c2cccc(NS(=O)(=O)c3c(F)cccc3F)c2F)c(-c2ccnc(N)n2)s1 + CC(C)NCC(C(=O)N1CCN(c2ncnc3c2C(C)CC3O)CC1)c1ccc(Cl)cc1	0.44%
COc1c(OCCCN2CCOCC2)ccc2c3n(c(=NC(=O)c4cnc(N)nc4)nc12)CCN3 + CC(C)NCC(C(=O)N1CCN(c2ncnc3c2C(C)CC3O)CC1)c1ccc(Cl)cc1	0.56%
CCCS(=O)(=O)Nc1ccc(F)c(C(=O)c2c[nH]c3ncc(-c4ccc(Cl)cc4)cc23)c1F + CC(C)NCC(C(=O)N1CCN(c2ncnc3c2C(C)CC3O)CC1)c1ccc(Cl)cc1	0.63%

Measured viability, T/C of Cc1nc(NC(=O)N2CCCC2C(N)=O)sc1-c1ccnc(C(C)(C)C(F)(F)F)c1 (centres undefined) + CC(C)NCC(C(=O)N1CCN(c2ncnc3c2C(C)CC3O)CC1)c1ccc(Cl)cc1 : 16.6%

====

test system: 128128-338-R-J1-PDC spheroids, viability % test/control; test: Anticancer human tumor 128128-338-R-J1-PDC cell line growth inhibition [TAK]; conditions: second compound 30 µM; first compound 0.000316 µM; spheroids with HUVEC and MSC; active = viability on the fitted dose curve at most 10% of control; inactive = the rest;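 also: spheroids exposed to compounds for 7 days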
Parameter call: string, one of active, inactive

Enquiry: Name the outcome recorded for CC(C)n1nc(-c2ccc3oc(N)nc3c2)c2c(N)ncnc21 + CC(C)NCC(C(=O)N1CCN(c2ncnc3c2C(C)CC3O)CC1)c1ccc(Cl)cc1 in the assay.
Return: inactive

Enquiry: Name the outcome recorded for CC(C)CC(NC(=O)CNC(=O)c1cc(Cl)ccc1Cl)B1OC(=O)CC(CC(=O)O)(C(=O)O)O1 (centres undefined) + CC(C)NCC(C(=O)N1CCN(c2ncnc3c2C(C)CC3O)CC1)c1ccc(Cl)cc1 in the assay.
Return: inactive

Enquiry: Name the outcome recorded for COC1CC2CCC(C)C(O)(O2)C(=O)C(=O)N2CCCCC2C(=O)OC(C(C)CC2CCC(OCCO)C(OC)C2)CC(=O)C(C)C=C(C)C(O)C(OC)C(=O)C(C)CC(C)C=CC=CC=C1C (centres undefined) + CC(C)NCC(C(=O)N1CCN(c2ncnc3c2C(C)CC3O)CC1)c1ccc(Cl)cc1 in the assay.
Return: active

Enquiry: Name the outcome recorded for CC(C)CC(NC(=O)C(Cc1ccccc1)NC(=O)c1cnccn1)B(O)O (centres undefined) + CC(C)NCC(C(=O)N1CCN(c2ncnc3c2C(C)CC3O)CC1)c1ccc(Cl)cc1 in the assay.
Return: inactive

====

system: 128128-338-R-J1-PDC spheroids, viability % test/control; experiment: Anticancer human tumor 128128-338-R-J1-PDC cell line growth inhibition [TAK]; conditions: second compound 0.3 µM; first compound 0.316 µM; spheroids with HUVEC and MSC; active = viability on the fitted dose curve at most 10% of control; inactive = the rest;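 also: spheroids exposed to compounds for 7 days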
Parameter call: string, one of true (active), false (inactive)

Example entries and their recorded answers appear below.
molecule	label.class
Cc1nc(NC(=O)N2CCCC2C(N)=O)sc1-c1ccnc(C(C)(C)C(F)(F)F)c1 (centres undefined) + CC(C)NCC(C(=O)N1CCN(c2ncnc3c2C(C)CC3O)CC1)c1ccc(Cl)cc1	false
COc1c(OCCCN2CCOCC2)ccc2c3n(c(=NC(=O)c4cnc(N)nc4)nc12)CCN3 + CC(C)NCC(C(=O)N1CCN(c2ncnc3c2C(C)CC3O)CC1)c1ccc(Cl)cc1	false
CC(C)(C)c1nc(-c2cccc(NS(=O)(=O)c3c(F)cccc3F)c2F)c(-c2ccnc(N)n2)s1 + CC(C)NCC(C(=O)N1CCN(c2ncnc3c2C(C)CC3O)CC1)c1ccc(Cl)cc1	true

Enquiry: Name the outcome recorded for CCCS(=O)(=O)Nc1ccc(F)c(C(=O)c2c[nH]c3ncc(-c4ccc(Cl)cc4)cc23)c1F + CC(C)NCC(C(=O)N1CCN(c2ncnc3c2C(C)CC3O)CC1)c1ccc(Cl)cc1 in the assay.
Return: false

====

system: 128128-338-R-J1-PDC spheroids, viability % test/control; assay: Anticancer human tumor 128128-338-R-J1-PDC cell line growth inhibition [TAK]; settings: second compound 3 µM; first compound 0.0316 µM; stronger effect = lower value; spheroids with HUVEC and MSC;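 also: spheroids exposed to compounds for 7 days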;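 as to viability, T/C: 100% = DMSO vehicle wells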
quantity.measured: viability, T/C (%)
Write down the numeric answer in % and omit the unit.

Past entries and their recorded results:
compound	measurement
CC(C)CC(NC(=O)CNC(=O)c1cc(Cl)ccc1Cl)B1OC(=O)CC(CC(=O)O)(C(=O)O)O1 (stereo not given) + CC(C)NCC(C(=O)N1CCN(c2ncnc3c2C(C)CC3O)CC1)c1ccc(Cl)cc1	1.1
COc1c(OCCCN2CCOCC2)ccc2c3n(c(=NC(=O)c4cnc(N)nc4)nc12)CCN3 + CC(C)NCC(C(=O)N1CCN(c2ncnc3c2C(C)CC3O)CC1)c1ccc(Cl)cc1	77.7
CC(C)n1nc(-c2ccc3oc(N)nc3c2)c2c(N)ncnc21 + CC(C)NCC(C(=O)N1CCN(c2ncnc3c2C(C)CC3O)CC1)c1ccc(Cl)cc1	18
Cc1nc(NC(=O)N2CCCC2C(N)=O)sc1-c1ccnc(C(C)(C)C(F)(F)F)c1 (stereo not given) + CC(C)NCC(C(=O)N1CCN(c2ncnc3c2C(C)CC3O)CC1)c1ccc(Cl)cc1	95.8

Attention now shifts to the item below.
Item CC(C)(C)c1nc(-c2cccc(NS(=O)(=O)c3c(F)cccc3F)c2F)c(-c2ccnc(N)n2)s1 + CC(C)NCC(C(=O)N1CCN(c2ncnc3c2C(C)CC3O)CC1)c1ccc(Cl)cc1 was tested on 128128-338-R-J1-PDC spheroids, viability % test/control; the reported viability, T/C is 29.6
